Where these numbers come from: patent US11541057B2

assayedTarget: NMDA receptor GRIN1/GRIN2B (NR2B) expressed in HEK293 cells (Homo sapiens)
Construct: host or cells: HEK293
Sequence (Q13224 27-1484, other chains not shown): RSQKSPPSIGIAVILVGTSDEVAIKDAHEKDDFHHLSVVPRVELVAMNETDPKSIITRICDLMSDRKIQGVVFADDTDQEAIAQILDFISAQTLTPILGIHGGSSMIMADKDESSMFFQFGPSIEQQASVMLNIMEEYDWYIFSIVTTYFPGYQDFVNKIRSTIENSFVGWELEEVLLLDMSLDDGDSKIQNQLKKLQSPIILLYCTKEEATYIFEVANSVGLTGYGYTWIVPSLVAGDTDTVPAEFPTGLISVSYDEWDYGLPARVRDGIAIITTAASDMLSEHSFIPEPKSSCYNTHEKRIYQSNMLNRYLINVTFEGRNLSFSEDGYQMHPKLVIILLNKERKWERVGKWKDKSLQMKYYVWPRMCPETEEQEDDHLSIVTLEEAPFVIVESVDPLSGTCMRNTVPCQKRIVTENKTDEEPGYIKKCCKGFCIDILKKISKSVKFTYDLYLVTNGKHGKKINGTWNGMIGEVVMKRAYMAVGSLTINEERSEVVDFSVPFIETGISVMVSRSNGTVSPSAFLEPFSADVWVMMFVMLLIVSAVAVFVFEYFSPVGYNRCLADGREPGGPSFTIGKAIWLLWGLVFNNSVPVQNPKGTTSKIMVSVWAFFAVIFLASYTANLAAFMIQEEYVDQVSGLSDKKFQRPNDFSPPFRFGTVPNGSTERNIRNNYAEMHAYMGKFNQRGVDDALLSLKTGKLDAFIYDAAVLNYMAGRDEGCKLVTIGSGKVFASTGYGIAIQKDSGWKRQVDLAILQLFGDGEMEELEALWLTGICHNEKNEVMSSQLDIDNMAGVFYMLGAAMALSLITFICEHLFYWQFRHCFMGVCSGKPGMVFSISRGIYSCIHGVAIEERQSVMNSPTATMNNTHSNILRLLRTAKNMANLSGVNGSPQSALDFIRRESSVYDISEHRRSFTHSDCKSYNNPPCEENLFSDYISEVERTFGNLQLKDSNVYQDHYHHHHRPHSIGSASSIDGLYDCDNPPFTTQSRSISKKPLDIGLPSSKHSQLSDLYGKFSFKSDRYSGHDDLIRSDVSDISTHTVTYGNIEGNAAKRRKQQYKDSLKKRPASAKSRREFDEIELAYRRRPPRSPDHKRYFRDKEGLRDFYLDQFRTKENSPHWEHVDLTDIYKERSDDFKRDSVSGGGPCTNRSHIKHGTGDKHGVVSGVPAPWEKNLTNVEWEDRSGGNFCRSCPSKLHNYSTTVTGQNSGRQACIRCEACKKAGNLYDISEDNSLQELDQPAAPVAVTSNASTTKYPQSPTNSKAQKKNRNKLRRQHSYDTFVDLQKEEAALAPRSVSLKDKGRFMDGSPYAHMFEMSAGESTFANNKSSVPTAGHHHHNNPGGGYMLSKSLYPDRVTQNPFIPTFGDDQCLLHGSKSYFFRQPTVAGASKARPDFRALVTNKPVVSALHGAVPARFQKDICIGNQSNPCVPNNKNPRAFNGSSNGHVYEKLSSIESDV
experimentalProtocol: Reversal of Ro 25-6981-mediated suppression of the Ca2+ response (fluo-8 fluorescence, FDSS) in HEK293 cells expressing GRIN1 and GRIN2B
Assay type: cell-based
studyConditions: % reversal=100*(R−Rneg)/(Rpos−Rneg) of Ro 25-6981 suppression of co-agonist (glutamate/glycine) Ca2+ response, 10 min pre-incubation, compound concentration not given
Each item that follows carries a reported Response Recovered (%).
endpointName: Response Recovered (%)

compound | assayedTarget | resultUnits | recordedResult
O=C(Cn1cnc2scc(-c3ccc(Cl)cc3)c2c1=O)N1CCC(O)CC1 | NMDA receptor GRIN1/GRIN2B (NR2B) expressed in HEK293 cells (Homo sapiens) | % | 0
O=C(Cn1cnc2scc(-c3cccc(Cl)c3Cl)c2c1=O)N1CCCC1 | NMDA receptor GRIN1/GRIN2B (NR2B) expressed in HEK293 cells (Homo sapiens) | % | 7
O=C(Cn1cnc2scc(-c3ccccc3Cl)c2c1=O)N1CCCC1 | NMDA receptor GRIN1/GRIN2B (NR2B) expressed in HEK293 cells (Homo sapiens) | % | 4
Cc1nc2scc(-c3ccc(Cl)cc3)c2c(=O)n1CC(=O)N1CCCC1 | NMDA receptor GRIN1/GRIN2B (NR2B) expressed in HEK293 cells (Homo sapiens) | % | 6
O=C(Cn1cnc2scc(-c3ccc(Cl)c(C(F)(F)F)c3)c2c1=O)N1C[C@@H](F)[C@@H](F)C1 | NMDA receptor GRIN1/GRIN2B (NR2B) expressed in HEK293 cells (Homo sapiens) | % | 103
O=C(Cn1cnc2sc(-c3ccc(Cl)cc3)cc2c1=O)N1CCOCC1 | NMDA receptor GRIN1/GRIN2B (NR2B) expressed in HEK293 cells (Homo sapiens) | % | 18
O=C(COn1cnc2scc(-c3ccc(Cl)c(C(F)(F)F)c3)c2c1=O)N1CCCC1 | NMDA receptor GRIN1/GRIN2B (NR2B) expressed in HEK293 cells (Homo sapiens) | % | 37
O=C(Cn1cnc2scc(-c3ccc(Cl)c(Cl)c3)c2c1=O)N1CCC(F)C1 (stereo not shown) | NMDA receptor GRIN1/GRIN2B (NR2B) expressed in HEK293 cells (Homo sapiens) | % | 98
O=C(Nn1cnc2scc(-c3ccc(Cl)c(C(F)(F)F)c3)c2c1=O)N1CCCC1 | NMDA receptor GRIN1/GRIN2B (NR2B) expressed in HEK293 cells (Homo sapiens) | % | 29
CN(C)c1ccc(-c2csc3ncn(CC(=O)N4CCCC4)c(=O)c23)cc1 | NMDA receptor GRIN1/GRIN2B (NR2B) expressed in HEK293 cells (Homo sapiens) | % | 0
O=C(On1cnc2scc(-c3ccc(F)c(Cl)c3)c2c1=O)N1CCCC1 | NMDA receptor GRIN1/GRIN2B (NR2B) expressed in HEK293 cells (Homo sapiens) | % | 48
O=C(Cn1c(C(F)(F)F)nc2scc(-c3ccc(Cl)cc3)c2c1=O)N1CCCC1C(F)(F)F (stereo not shown) | NMDA receptor GRIN1/GRIN2B (NR2B) expressed in HEK293 cells (Homo sapiens) | % | −2
O=C(Cn1cnc2scc(-c3cccc(OC(F)(F)F)c3)c2c1=O)N1CCCC1 | NMDA receptor GRIN1/GRIN2B (NR2B) expressed in HEK293 cells (Homo sapiens) | % | 27
O=C(Cn1cnc2scc(-c3cccc(C(F)(F)F)c3)c2c1=O)N1CCCC1 | NMDA receptor GRIN1/GRIN2B (NR2B) expressed in HEK293 cells (Homo sapiens) | % | 33
CC(C(=O)N1CCCC1)n1cnc2scc(-c3ccc(F)c(Cl)c3)c2c1=O (stereo not shown) | NMDA receptor GRIN1/GRIN2B (NR2B) expressed in HEK293 cells (Homo sapiens) | % | 3
O=C(Cn1cnc2scc(-c3ccc(F)c(C(F)(F)F)c3)c2c1=O)N1CCCC1 | NMDA receptor GRIN1/GRIN2B (NR2B) expressed in HEK293 cells (Homo sapiens) | % | 43
O=C(Cn1cnc2scc(-c3ccc(Cl)cc3)c2c1=O)N1CCC(F)C1 (stereo not shown) | NMDA receptor GRIN1/GRIN2B (NR2B) expressed in HEK293 cells (Homo sapiens) | % | 21
O=C(Nn1cnc2scc(-c3ccc(F)c(Cl)c3)c2c1=O)C1CCCC1 | NMDA receptor GRIN1/GRIN2B (NR2B) expressed in HEK293 cells (Homo sapiens) | % | 27
O=C(Cn1cnc2scc(-c3ccc(Cl)c(Cl)c3)c2c1=O)N1CCCC1 | NMDA receptor GRIN1/GRIN2B (NR2B) expressed in HEK293 cells (Homo sapiens) | % | 61
